- target: T1, human serum albumin (human, UniProt P02768 25-609)
- T1 construct: mature; Bought purified serum albumin; also called HSA; Human albumin
- measurement.description: SPR, Fab captured; albumin taken as HSA;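 also: antibody captured on the sensor surface, albumin injected for a 3 min association phase, then dissociation followed, with signals corrected against a blank flow cell and buffer-only injections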
koff values by entry
Numeric answer only, unit s⁻¹ assumed.

Reference set, count: 2
binder	koff / s⁻¹
CA645 gL19gH5 Fab (Fab, V domains shown, Fab: human gamma1 CH1, human kappa (Km3); Kabat numbering) VH: EVQLLESGGGLVQPGGSLRLSCAVSGIDLSNYAINWVRQAPGKGLEWIGIIWASGTTFYATWAKGRFTISRDNSKNTVYLQMNSLRAEDTAVYYCARTVPGYSTAPYFDLWGQGTLVTVSS VL: DIQMTQSPSSVSASVGDRVTITCQSSPSVWDNFLSWYQQKPGKAPKLLIYEASKLTSGVPSRFSGSGSGTDFTLTISSLQPEDFATYYCGGGYSSISDTTFGGGTKVEIK	0.00026
CA645 gL25gH5 Fab (Fab, V domains shown, Fab: human gamma1 CH1, human kappa (Km3); Kabat numbering) VH: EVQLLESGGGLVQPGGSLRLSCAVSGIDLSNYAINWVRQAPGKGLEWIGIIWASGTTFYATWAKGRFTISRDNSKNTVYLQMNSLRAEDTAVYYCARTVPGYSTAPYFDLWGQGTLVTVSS VL: DIQMTQSPSSVSASVGDRVTITCQSSPSVWFNFLSWYQQKPGKAPKLLIYEASKLTSGVPSRFSGSGSGTDFTLTISSLQPEDFATYYCGGGYSSISDTTFGGGTKVEIK	0.000217

Below: the item to evaluate.
Record request: koff value, item CA645 gL4gH34 Fab (Fab, V domains shown, Fab: human gamma1 CH1, human kappa (Km3); Kabat numbering) VH: EVQLLESGGGLVQPGGSLRLSCAVSGIDLSNYAINWVRQAPGKGLEWIGIIWAQGTTFYATWAKGRFTISRDNSKNTVYLQMNSLRAEDTAVYYCARTVPGYSTAPYFDLWGQGTLVTVSS VL: DIQMTQSPSSVSASVGDRVTITCQSSPSVWSNFLSWYQQKPGKAPKLLIYEASKLTSGVPSRFSGSGSGTDFTLTISSLQPEDFATYYCGGGYSSISDTTFGGGTKVEIK
0.000422
